- protocol details: gradient 5% acetonitrile 3 min, to 50% in 2 min, to 85% in 15 min, held 3 min, 100 µL/min
- run conditions: column: Zorbax Extend-C18 2.1 x 50 mm; eluents: water / acetonitrile, 0.1% formic acid
Note to self: class labels come from recorded RP-LC retention time, ranges listed here: 0: < 700 s; 1: ≥ 700 s and < 900 s; 2: ≥ 900 s

// query Any idea which band CCc1ccc(CNC(=O)Cn2ccc3ccc(N4CCCCC4)nc32)cc1 is in?
// result 2

// query Any idea which band Clc1ccc(-c2nc(NCc3cccs3)c3ccccc3n2)cc1 is in?
// result 1

// query Any idea which band COCc1cc2nn(CC(=O)NC3CCCC3)c(=O)n2c(-c2ccccc2)n1 is in?
// result 1

// query Any idea which band O=c1c2cc(-c3ccccc3Cl)nn2cnn1Cc1nc(-c2ccc(F)cc2)no1 is in?
// result 2

// query Any idea which band O=C(c1sc2ccccc2c1Cl)N1CCN(c2ccccn2)CC1 is in?
// result 0

// query Any idea which band COC(=O)c1ccc(-c2nc3cnccn3c2Nc2ccc(C)cc2C)cc1 is in?
// result 2

// query Any idea which band Cc1ccc(C(=O)NCc2ccc3c(c2)ncn3C(C)C)s1 is in?
// result 0

// query Any idea which band COc1cccc(NC(=O)C2CCN(S(=O)(=O)c3cc(C(=O)N(C)C)cs3)CC2)c1 is in?
// result 1

// query Any idea which band Cn1nccc1C(=O)N1CCc2c([nH]c3ccccc23)C1c1ccc(Cl)cc1 (stereo not given) is in?
// result 2

// query Any idea which band CCS(=O)(=O)c1nc2ccc(NS(=O)(=O)c3cc(OC)ccc3OC)cc2s1 is in?
// result 1

// query Any idea which band Brc1ccc(C(c2nnc(-c3ccccc3)o2)N2CCN(c3ccccn3)CC2)cc1 (stereo not given) is in?
// result 1

// query Any idea which band CNC(=O)C1CN(S(=O)(=O)c2ccccc2)CC12CCCCC2 (stereo not given) is in?
// result 1

// query Any idea which band CN(C)c1ncccc1C(=O)Nc1ccc(F)cc1 is in?
// result 0

// query Any idea which band Cc1ccc(C2CCCN2C(=O)Cc2ccsc2)cc1 (stereo not given) is in?
// result 0

// query Any idea which band O=C(NCc1ccccc1)c1cc2sccc2n1Cc1ccc(Cl)cc1 is in?
// result 2

Data provenance is the METLIN SMRT retention time set (Domingo-Almenara et al. 2019).
